- subject_of_test: T1, Human VSIG4-L-Fc (human)
- T1 construct: also called hVSIG4-L-Fc; hVSIG4-L
- method: ELISA, Fab P.E. 1:5 on coated antigen;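 note: mouse Fab P.E. samples in 1% skimmed milk PBS, bound to antigen-coated wells for 1 h at room temperature, read as absorbance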
readout_kind: ELISA OD450 (OD450)
API: value field is a number in OD450; no unit string.

Some binders with recorded ELISA OD450:
14C05 mouse Fab (periplasmic extract) (Fab, V domains shown, mouse Fab with C-terminal His6-c-myc tag) VH: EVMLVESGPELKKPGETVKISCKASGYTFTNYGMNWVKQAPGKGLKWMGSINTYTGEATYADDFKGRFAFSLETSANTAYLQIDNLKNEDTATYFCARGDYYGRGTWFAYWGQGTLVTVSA VL: ETTVTQSHKFMSTSVGDRVSITCKASQDVSTAVAWYQQKPGQSPKLLIYSASYRYPGVPDRFTGSGSGTDFTFTISSVQAEDLAVYYCQQDYSSPWTFGGGTKLEIK = 4.33
15C04 mouse Fab (periplasmic extract) (Fab, V domains shown, mouse Fab with C-terminal His6-c-myc tag) VH: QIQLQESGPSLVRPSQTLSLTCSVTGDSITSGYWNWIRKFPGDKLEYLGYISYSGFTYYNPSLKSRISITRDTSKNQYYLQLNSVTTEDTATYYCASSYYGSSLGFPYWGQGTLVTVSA VL: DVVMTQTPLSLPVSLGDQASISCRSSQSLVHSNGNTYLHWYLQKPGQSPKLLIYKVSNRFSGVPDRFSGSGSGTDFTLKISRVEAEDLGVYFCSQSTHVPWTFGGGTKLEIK = 4.21
12A12 mouse Fab (periplasmic extract) (Fab, V domains shown, mouse Fab with C-terminal His6-c-myc tag) VH: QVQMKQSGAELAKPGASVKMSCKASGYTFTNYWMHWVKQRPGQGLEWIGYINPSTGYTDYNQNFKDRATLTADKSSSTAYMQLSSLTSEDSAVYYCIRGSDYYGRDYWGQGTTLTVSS VL: DIQMTQTTSSLSASLGDRVTISCRASQDISNYLNWYQQKPDGTLKLLIYYTSRLHSGVPSRFSGSGSGTDYSLTISNLEQEDIATYFCRQGNTLPWTFGGGTKLEIK = 4.42
16E03 mouse Fab (periplasmic extract) (Fab, V domains shown, mouse Fab with C-terminal His6-c-myc tag) VH: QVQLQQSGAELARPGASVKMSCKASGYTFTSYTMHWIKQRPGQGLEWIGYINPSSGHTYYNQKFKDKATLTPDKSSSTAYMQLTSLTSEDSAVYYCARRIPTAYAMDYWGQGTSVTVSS VL: EIQMTQSHKFMSTSVGDRVSITCKASQDVGTAVAWYQQKPGQSPKLLIYWASTRHTGVPDRFTGSGSGTDFTLTISNVQSEDLADYFCQQYSSYPLTFGAGTKLELK = 4.43
16E10 mouse Fab (periplasmic extract) (Fab, V domains shown, mouse Fab with C-terminal His6-c-myc tag) VH: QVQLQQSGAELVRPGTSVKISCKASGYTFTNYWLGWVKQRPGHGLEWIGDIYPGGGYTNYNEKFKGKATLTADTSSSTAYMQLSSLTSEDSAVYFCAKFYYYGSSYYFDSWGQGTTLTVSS VL: DIVLTQSPSSLSVSAGEKVTLSCKSSQSLLNSGNQENYLAWYQQKPGQPPKLLIYGASTRESGVPDRFTGSGSGTDFTLTISSVQAEDLAVYYCQNDHSYPLTFGAGTKLELK = 1.86
13H11 mouse Fab (periplasmic extract) (Fab, V domains shown, mouse Fab with C-terminal His6-c-myc tag) VH: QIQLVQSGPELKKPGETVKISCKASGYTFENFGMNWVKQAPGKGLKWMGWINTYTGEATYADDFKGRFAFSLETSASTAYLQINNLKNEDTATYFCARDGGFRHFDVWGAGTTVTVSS VL: ETTVTQSPASLSVATGEKVTIRCITSTDIDDDMNWYQQKPGEPPKLLISEGNTLRPGVPSRFSSSGYGTDFVFTIENMLSEDVADYYCLQSDNLPLTFGAGTKLELK = 4.33

Let's switch to this binder now.
The reported ELISA OD450 of the binder 15A06 mouse Fab (periplasmic extract) (Fab, V domains shown, mouse Fab with C-terminal His6-c-myc tag) VH: QVQMKQSGPSLVRPSQTLSLTCSVTGDSITSGYWNWIRKFPGDKFEYLGYISYSGFTYYNPSLKSRVSITRDTSKNQYYLQLHSVTTEDTATYYCASSKYGSSLGFPYWGQGTLVTVSA VL: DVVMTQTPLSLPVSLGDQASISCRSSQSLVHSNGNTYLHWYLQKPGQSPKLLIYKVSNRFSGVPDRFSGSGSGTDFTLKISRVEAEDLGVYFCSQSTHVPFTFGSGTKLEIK was 4.42

From: patent US20230348603A1
